target: T1, Human VEGF 165 (human, UniProt P15692-4 27-191); test: BLI, VEGF 165 on probe, conjugate as analyte, t = 0; value is the limit of detection
T1 construct: Loaded on the BLI probe as the ligand; also called BLI ligand Human VEGF 165 (Avi tag, R&D Systems AVI-293-050); not shown: Avi tag
T1 sequence (P15692 other isoform, or with tags, fused parts or gaps limits assumed): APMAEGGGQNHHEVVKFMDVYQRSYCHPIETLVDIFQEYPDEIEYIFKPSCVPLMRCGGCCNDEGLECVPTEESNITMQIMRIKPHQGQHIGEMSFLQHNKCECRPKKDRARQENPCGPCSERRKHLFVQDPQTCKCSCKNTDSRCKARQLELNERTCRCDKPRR
pKd: −log10 of the molar value.
quantity_name: pKd

binder: Conjugate 3 (anti-VEGF DARPin SEQ ID NO: 92 on hyaluronic acid, intermediate 5-5) (designed binder, peptide bound through the organic linker MP2H to hyaluronic acid (830 kDa); site of attachment not stated, Multivalent peptide-hyaluronic acid conjugate (MVP); peptide valency 67; Method 5 intermediate; also called DARPin MVP (Method 5)) GSDLDKKLLEAARAGQDDEVRILMANGADVNARDSTGWTPLHLAAPWGHPEIVEVLLKNGADVNAADFQGWTPLHLAAAVGHLEIVEVLLKYGADVNAQDKFGKTAFDISIDNGNEDLAEILQKAAGGGSGGGS
quantity_name: pKd
result: > 12.00

Recorded values, source patent US20230405133A1.
